Each entry below carries its recorded Dose required to obtain 50% inhibition of Thymus weight.
# System: rats subjected to adrenalectomy (granuloma around implanted cotton wads)
# measurement.description: granulom test (cotton-pellet test) on rats subjected to adrenalectomy: granuloma growth, thymus weight, body weight increase
# Assay type: in vivo, rat (Sprague-Dawley)
# assay.setup: rat, in vivo, 11520 min

Please review the following examples before continuing.
{"columns": ["molecule", "test.value"],
 "data": [
  ["CC1O[C@@H]2C[C@H]3[C@@H]4CCC5=CC(=O)C=C[C@]5(C)[C@@]4(F)[C@@H](O)C[C@]3(C)[C@]2(C(=O)COC(=O)c2cc3ccccc3o2)O1 (some centres unmarked) [16 A]", "70 γ/animal"],
  ["CCC1O[C@@H]2C[C@H]3[C@@H]4CCC5=CC(=O)C=C[C@]5(C)[C@@]4(F)[C@@H](O)C[C@]3(C)[C@]2(C(=O)CO)O1 (single isomer, unassigned) [2 A]", "130 γ/animal"],
  ["CCCCC(=O)OCC(=O)[C@@]12OC(CCC)O[C@@H]1C[C@H]1[C@@H]3CCC4=CC(=O)C=C[C@]4(C)[C@@]3(F)[C@@H](O)C[C@@]12C (single isomer, unassigned) [22 A]", "90 γ/animal"],
  ["CCCC1OC2CC3C4CC(F)C5=CC(=O)C=CC5(C)C4(F)C(O)CC3(C)C2(C(=O)CO)O1 (mixture of isomers)", "10 γ/animal"]
]}

Please find the next molecule below.
Please look at this molecule and report its Dose required to obtain 50% inhibition of Thymus weight: CCCCCC1O[C@@H]2C[C@H]3[C@@H]4CCC5=CC(=O)C=C[C@]5(C)[C@H]4[C@@H](O)C[C@]3(C)[C@]2(C(=O)CO)O1 (single isomer, unassigned) [13 B]
210 γ/animal

---

# System: rats subjected to adrenalectomy (granuloma around implanted cotton wads)
# measurement.description: granulom test (cotton-pellet test) on rats subjected to adrenalectomy: granuloma growth, thymus weight, body weight increase
# Assay type: in vivo, rat (Sprague-Dawley)
# assay.setup: rat, in vivo, 11520 min
Consider the following compounds and their measured Dose required to obtain 50% inhibition of Thymus weight readings.

Please give measured Dose required to obtain 50% inhibition of Thymus weight of the following entry: CCCCC(=O)OCC(=O)[C@@]12OC(C)O[C@@H]1C[C@H]1[C@@H]3CCC4=CC(=O)C=C[C@]4(C)[C@@]3(F)[C@@H](O)C[C@@]12C (single isomer, unassigned) [18 B]
10 γ/animal

Note down Dose required to obtain 50% inhibition of Thymus weight recorded for CC1O[C@@H]2C[C@H]3[C@@H]4C[C@H](F)C5=CC(=O)C=C[C@]5(C)[C@@]4(F)[C@@H](O)C[C@]3(C)[C@]2(C(=O)CO)O1 (single isomer, unassigned) [7 A]
12 γ/animal

Return the recorded Dose required to obtain 50% inhibition of Thymus weight value; entry: CCC1O[C@@H]2C[C@H]3[C@@H]4CCC5=CC(=O)C=C[C@]5(C)[C@@]4(F)[C@@H](O)C[C@]3(C)[C@]2(C(=O)CO)O1 (single isomer, unassigned) [2 B]
60 γ/animal

---

# System: rats subjected to adrenalectomy (granuloma around implanted cotton wads)
# measurement.description: granulom test (cotton-pellet test) on rats subjected to adrenalectomy: granuloma growth, thymus weight, body weight increase
# Type: in vivo, rat (Sprague-Dawley)
# assay.setup: rat, in vivo, 11520 min
Item-by-item account of Dose required to obtain 50% inhibition of Thymus weight

{"columns": ["molecule", "test.value"],
 "data": [
  ["CCCCC(=O)OCC(=O)C12OC(CCC)OC1CC1C3CCC4=CC(=O)C=CC4(C)C3(F)C(O)CC12C (mixture of isomers)", "50 γ/animal"],
  ["CCCC1O[C@@H]2C[C@H]3[C@@H]4C[C@H](F)C5=CC(=O)C=C[C@]5(C)[C@@]4(F)[C@@H](O)C[C@]3(C)[C@]2(C(=O)COC(=O)c2cc3ccccc3o2)O1 (single isomer, unassigned) [25 A]", "15 γ/animal"]
]}

// next entry
Report measured Dose required to obtain 50% inhibition of Thymus weight; entry is CCCC1O[C@@H]2C[C@H]3[C@@H]4CCC5=CC(=O)C=C[C@]5(C)[C@H]4[C@@H](O)C[C@]3(C)[C@]2(C(=O)CO)O1 (stereo partly drawn) [12 A+B]
80 γ/animal
